Values compiled from the supplement of paper PMC6757056.

B1: library; a variant is named by its letters at N, in order (parent)
chain: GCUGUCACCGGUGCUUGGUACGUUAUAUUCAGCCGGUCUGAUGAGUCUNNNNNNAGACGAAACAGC

variants of: B1; experiment: normalized RNA/DNA level with ligand (relative to sTRSVctl = 100) (log10 (% of sTRSVctl)); HEK293T overexpressing SLC46A1; ligand concentration (+) RNA-Seq: 6 mM; higher = less ribozyme self-cleavage, higher mRNA level; settings: with (6R,S)-folinic acid; ligand present: yes
Please use true whenever normalized RNA/DNA level with ligand (log10) is not below 2, and false whenever it is.

These solved cases illustrate the format of a correct answer.
- variantIdentifier: "CCCACU"
  groupLabel: "true"
- variantIdentifier: "CGAAGG"
  groupLabel: "false"

Evaluate CGUCAG : normalized RNA/DNA level with ligand (log10) at minimum 2?
true

Same lookup for UGUCCU , please.
true
